- target: T1, Recombinant human OX40/His (UniProt P43489 29-216)
- T1 chain: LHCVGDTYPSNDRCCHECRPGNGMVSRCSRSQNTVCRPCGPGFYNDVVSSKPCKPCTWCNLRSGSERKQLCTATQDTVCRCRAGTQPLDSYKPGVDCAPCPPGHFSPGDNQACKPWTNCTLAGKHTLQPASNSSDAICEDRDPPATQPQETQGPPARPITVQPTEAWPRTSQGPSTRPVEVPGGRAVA
- test.details: SPR
pKd: −log10 of the molar value.
endpoint.label: pKd

binder: 5-G8 variant anti-OX40 antibody (antibody, V domains shown) VH: QVQLVQSGAEVKKPGASVKVSCKTSGYTFTGYYLHWVRQAPGQGLEWMGIINPSDGSTRNAQKFEGRVTMTRDTSTSTVYMELSSLSPEDTAVYYCARDLEYIGSGSLSWFDPWGQGTLVTVSS VL: QSALTQPASVSGSPGQSITISCTGSSSDIGGYNSVSWYQQYPGKAPKLIIYDVNNRPSGVSNRFSGSKSGNTASLTISGLQAEDEADYYCSSYTYYTELVYVFGTGTKVTVL
readout.value: 8.42
//
binder: 5-A6 variant anti-OX40 antibody (antibody, V domains shown) VH: QVQLVQSGAEVKKPGASVKVSCKTSGYTFTGYYLHWVRQAPGQGLEWMGIINPSDGSTRNAQKFEGRVTMTRDTSTSTVYMELSSLSPEDTAVYYCARDLEYIGSGSLSWFDPWGQGTLVTVSS VL: QSALTQPASVSGSPGQSITISCTGSSSDIGGYNSVSWYQQYPGKAPKLIIYDVNNRPSGVSNRFSGSKSGNTASLTISGLQAEDEADYYCSSYTFDTGLVYVFGTGTKVTVL
readout.value: 8.62
//
binder: 2B4 wild type anti-OX40 antibody (antibody, V domains shown, Fully human antibody of an IgG class, captured or detected through human Fc; the isotype control used was IgG1; also called 2B4 (WT); wild type 2B4) VH: QMQLVQSGAEVKKPGASVKVSCKTSGYTFTGYYLHWVRQAPGQGLEWMGIINPSDGSTRNAQKFEGRVTMTRDTSTSTVYMELSSLSPEDTAVYYCARDLEYIGSGSLSWFDPWGQGTLVTVSS VL: QPVLTQPASVSGSPGQSITISCTGTSSDLGAYDYVSWYQQQPGQAPKLIIYDVNNRPSGVSNRFSGSKSGNTASLTISGLQAEDEADYYCSSYTSSSTLVYVFGTGTKVTVL
readout.value: 6.48
//
binder: 5-H6 variant anti-OX40 antibody (antibody, V domains shown) VH: QVQLVQSGAEVKKPGASVKVSCKTSGYTFTGYYLHWVRQAPGQGLEWMGIINPSDGSTRNAQKFEGRVTMTRDTSTSTVYMELSSLSPEDTAVYYCARDLEYIGSGSLSWFDPWGQGTLVTVSS VL: QSALTQPASVSGSPGQSITISCTGSSSDIGGYNSVSWYQQYPGKAPKLIIYDVNNRPSGVSNRFSGSKSGNTASLTISGLQAEDEADYYCSSYTYDNDLVYVFGTGTKVTVL
readout.value: 8.45
//
binder: 5-F5 variant anti-OX40 antibody (antibody, V domains shown) VH: QVQLVQSGAEVKKPGASVKVSCKTSGYTFTGYYLHWVRQAPGQGLEWMGIINPSDGSTRNAQKFEGRVTMTRDTSTSTVYMELSSLSPEDTAVYYCARDLEYIGSGSLSWFDPWGQGTLVTVSS VL: QSALTQPASVSGSPGQSITISCTGSSSDIGGYNSVSWYQQYPGKAPKLIIYDVNNRPSGVSNRFSGSKSGNTASLTISGLQAEDEADYYCSSYTYDTGLVYVFGTGTKVTVL
readout.value: 8.52
//
binder: 5-C8 variant anti-OX40 antibody (antibody, V domains shown) VH: QVQLVQSGAEVKKPGASVKVSCKTSGYTFTGYYLHWVRQAPGQGLEWMGIINPSDGSTRNAQKFEGRVTMTRDTSTSTVYMELSSLSPEDTAVYYCARDLEYIGSGSLSWFDPWGQGTLVTVSS VL: QSALTQPASVSGSPGQSITISCTGSSSDIGGYNSVSWYQQYPGKAPKLIIYDVNNRPSGVSNRFSGSKSGNTASLTISGLQAEDEADYYCSSYTHNTGLVYVFGTGTKVTVL
readout.value: 8.36
//
binder: 5-A8 variant anti-OX40 antibody (antibody, V domains shown) VH: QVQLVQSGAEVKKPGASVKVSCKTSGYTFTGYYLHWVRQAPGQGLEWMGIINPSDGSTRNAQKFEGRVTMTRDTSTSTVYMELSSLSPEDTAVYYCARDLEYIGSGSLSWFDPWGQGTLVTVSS VL: QSALTQPASVSGSPGQSITISCTGSSSDIGGYNSVSWYQQYPGKAPKLIIYDVNNRPSGVSNRFSGSKSGNTASLTISGLQAEDEADYYCSSYTFHTGLVYVFGTGTKVTVL
readout.value: 8.36
